IC50 for assorted compounds
Target: ERα (Homo sapiens)
Construct: the ERα LBD was amplified by polymerase chain reaction and subcloned into the pGEX-6P-1 vector; made in house; host or cells: Escherichia coli BL21α
Sequence (P03372 311-547 limits assumed): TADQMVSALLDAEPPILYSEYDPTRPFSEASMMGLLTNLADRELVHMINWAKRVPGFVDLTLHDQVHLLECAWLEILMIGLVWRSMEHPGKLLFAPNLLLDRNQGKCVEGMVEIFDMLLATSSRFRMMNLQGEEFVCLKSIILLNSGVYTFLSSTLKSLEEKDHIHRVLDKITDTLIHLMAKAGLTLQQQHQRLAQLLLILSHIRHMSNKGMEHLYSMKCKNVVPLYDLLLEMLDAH
Assay: Competitive binding assay using [3H]E2 against GST-fused ERα LBD
Metric: IC50

[
  {
    "Compound": "CC(C)c1cc(C(C)(C)c2ccc(O)c(C(C)C)c2)ccc1O",
    "Reported": "> 1.78 µM"
  },
  {
    "Compound": "CC(C)(c1ccc(O)cc1)c1cccc(C(C)(C)c2ccc(O)cc2)c1 [compound 7, bisphenol M]",
    "Reported": "0.0568 µM"
  },
  {
    "Compound": "CC(C)(c1ccc(O)c(-c2ccccc2)c1)c1ccc(O)c(-c2ccccc2)c1 [2,2-bis(2-hydroxy-5-biphenylyl)propane]",
    "Reported": "> 1.78 µM"
  }
]
